- target: T1, Bzz1-2, P38822
- T1 sequence (P38822 568-633, looked up): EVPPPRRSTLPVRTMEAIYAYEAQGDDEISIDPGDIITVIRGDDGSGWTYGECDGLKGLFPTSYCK
- experiment.summary: SPOT array
- condition.info: median of control spots 4538
result.type: SPOT intensity

SRSKPLPLTPNSKYN: 4
SKIRPTPRKPSRMAT: 16
LLGRKRPVMERVVDI: 4
RRASLFPRDPKRLRP: 35

[A] LKQRFFLMFPKSIIW
[B] NPNRRAPRRPLSTQH
Task: Which entry has a larger number for SPOT intensity, A or B ? To answer, give the label that identifies your chosen option.
Result: B
(B: 56, A: 0)
